Recorded viability, T/C values for a group of compounds are listed next.
System: 186277-243-T-J2-PDC multi-cell spheroid viability
METHOD SUMMARY: Anticancer human tumor 186277-243-T-J2-PDC patient-derived colon adenocarcinoma cell line growth inhibition [PI3K]
MEASUREMENT CONTEXT: second compound 0.0316 µM; first compound 0.0316 µM; active compounds read low
# number only, unit % dropped from output

Below: 2 compounds and their reported viability, T/C.
{"COMPOUND": "CC1(C)CCC(Nc2ncc(C(F)(F)F)c(-c3c[nH]c4c(P(C)(C)=O)c(C#N)ccc34)n2)CN1 (configuration not stated) + Cc1nc(NC(=O)N2CCCC2C(N)=O)sc1-c1ccnc(C(C)(C)C(F)(F)F)c1", "READOUT TYPE": "viability, T/C", "RESULT": 76.1}
{"COMPOUND": "CC(=O)c1c(C)c2cnc(Nc3ccc(N4CCNCC4)cn3)nc2n(C2CCCC2)c1=O + CC(Nc1ccc2c(c1)OCCn1cc(N3C(=O)OCC3C(F)F)nc1-2)C(N)=O", "READOUT TYPE": "viability, T/C", "RESULT": 134}

GET /value?item= CC(Cn1ccc(-c2ccc(C#N)c(Cl)c2)n1)NC(=O)c1cc(C(C)O)[nH]n1 (configuration not stated) + COc1c(OCCCN2CCOCC2)ccc2c3n(c(=NC(=O)c4cnc(N)nc4)nc12)CCN3 &field=viability, T/C returns 74.7

GET /value?item= CCN1CCN(Cc2ccc(Nc3ncc(F)c(-c4cc(F)c5nc(C)n(C(C)C)c5c4)n3)nc2)CC1 + CC(Nc1ccc2c(c1)OCCn1cc(N3C(=O)OCC3C(F)F)nc1-2)C(N)=O &field=viability, T/C returns 107

GET /value?item= Cn1ncc(Cl)c1-c1cc(C(=O)NC(CN)Cc2cccc(F)c2)sc1Cl (configuration not stated) + CC(Nc1ccc2c(c1)OCCn1cc(N3C(=O)OCC3C(F)F)nc1-2)C(N)=O &field=viability, T/C returns 103

GET /value?item= CC1(C)CCC(Nc2ncc(C(F)(F)F)c(-c3c[nH]c4c(P(C)(C)=O)c(C#N)ccc34)n2)CN1 (configuration not stated) + COc1c(OCCCN2CCOCC2)ccc2c3n(c(=NC(=O)c4cnc(N)nc4)nc12)CCN3 &field=viability, T/C returns 37.3

GET /value?item= C=CC(=O)N1CCN(c2nc(=O)n(-c3c(C)ccnc3C(C)C)c3nc(-c4c(O)cccc4F)c(F)cc23)C(C)C1 (configuration not stated) + CC(Nc1ccc2c(c1)OCCn1cc(N3C(=O)OCC3C(F)F)nc1-2)C(N)=O &field=viability, T/C returns 104

GET /value?item= Cn1ncc(Cl)c1-c1cc(C(=O)NC(CN)Cc2cccc(F)c2)sc1Cl (configuration not stated) + COc1c(OCCCN2CCOCC2)ccc2c3n(c(=NC(=O)c4cnc(N)nc4)nc12)CCN3 &field=viability, T/C returns 58.3

GET /value?item= Cn1nccc1Nc1nccc(-c2ccn(C(CO)c3ccc(Cl)c(F)c3)c(=O)c2)n1 (configuration not stated) + CC(Nc1ccc2c(c1)OCCn1cc(N3C(=O)OCC3C(F)F)nc1-2)C(N)=O &field=viability, T/C returns 103

GET /value?item= CC(C)n1nc(-c2ccc3oc(N)nc3c2)c2c(N)ncnc21 + CC(Nc1ccc2c(c1)OCCn1cc(N3C(=O)OCC3C(F)F)nc1-2)C(N)=O &field=viability, T/C returns 69.7

GET /value?item= CC(C)n1nc(-c2ccc3oc(N)nc3c2)c2c(N)ncnc21 + COc1c(OCCCN2CCOCC2)ccc2c3n(c(=NC(=O)c4cnc(N)nc4)nc12)CCN3 &field=viability, T/C returns 17.1

GET /value?item= CC(C)n1nc(-c2ccc3oc(N)nc3c2)c2c(N)ncnc21 + Cc1nc(NC(=O)N2CCCC2C(N)=O)sc1-c1ccnc(C(C)(C)C(F)(F)F)c1 &field=viability, T/C returns 73.5

* * *

System: 186277-243-T-J2-PDC multi-cell spheroid viability
METHOD SUMMARY: Anticancer human tumor 186277-243-T-J2-PDC cell line growth inhibition [PI3K];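 further: spheroids exposed to compounds for seven days before viability reading; 100% = DMSO vehicle control viability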
MEASUREMENT CONTEXT: second compound 0.0316 µM; first compound 0.0316 µM; active compounds read low
Excerpt: Combinatorial screen of targeted agents with the PI3K inhibitors inavolisib, alpelisib, duvelisib, and copanlisib in multi-cell type tumor spheroids A high-throughput screen of multi-cell type tumor spheroids was designed to identify active combinations of targeted small molecules and PI3K pathway inhibitors. […] Compounds. […] If the clinical Cmax for an agent had not been determined, the highest concentration tested was 10 microM. […]
Recorded viability, T/C values for a group of molecules are listed next.
# number only, unit % dropped from output

{"MOLECULE": "Cn1nccc1Nc1nccc(-c2ccn(C(CO)c3ccc(Cl)c(F)c3)c(=O)c2)n1 (stereo unspecified) + CC(Nc1ncnc2nc[nH]c12)c1cc2cccc(Cl)c2c(=O)n1-c1ccccc1", "viability, T/C [%]": 82.5}
{"MOLECULE": "C#Cc1c(F)ccc2cc(O)cc(-c3ncc4c(N5CC6CCC(C5)N6)nc(OCC56CCCN5CC(F)C6)nc4c3F)c12 (stereo unspecified) + COc1c(OCCCN2CCOCC2)ccc2c3n(c(=NC(=O)c4cnc(N)nc4)nc12)CCN3", "viability, T/C [%]": 16.9}
{"MOLECULE": "CC(C)NCC(C(=O)N1CCN(c2ncnc3c2C(C)CC3O)CC1)c1ccc(Cl)cc1 (stereo unspecified) + COc1c(OCCCN2CCOCC2)ccc2c3n(c(=NC(=O)c4cnc(N)nc4)nc12)CCN3", "viability, T/C [%]": 69.4}

GET /value?item= C#Cc1c(F)ccc2cc(O)cc(-c3ncc4c(N5CC6CCC(C5)N6)nc(OCC56CCCN5CC(F)C6)nc4c3F)c12 (stereo unspecified) + CC(Nc1ccc2c(c1)OCCn1cc(N3C(=O)OCC3C(F)F)nc1-2)C(N)=O &field=viability, T/C returns 48.9

GET /value?item= CC(C)n1nc(-c2ccc3oc(N)nc3c2)c2c(N)ncnc21 + CC(Nc1ncnc2nc[nH]c12)c1cc2cccc(Cl)c2c(=O)n1-c1ccccc1 &field=viability, T/C returns 81.5

GET /value?item= CC1(C)CCC(CN2CCN(c3ccc(C(=O)NS(=O)(=O)c4ccc(NCC5CCOCC5)c([N+](=O)[O-])c4)c(Oc4cnc5[nH]ccc5c4)c3)CC2)=C(c2ccc(Cl)cc2)C1 + CC(Nc1ncnc2nc[nH]c12)c1cc2cccc(Cl)c2c(=O)n1-c1ccccc1 &field=viability, T/C returns 96.6

GET /value?item= C=CC(=O)N1CCN(c2nc(=O)n(-c3c(C)ccnc3C(C)C)c3nc(-c4c(O)cccc4F)c(F)cc23)C(C)C1 (stereo unspecified) + COc1c(OCCCN2CCOCC2)ccc2c3n(c(=NC(=O)c4cnc(N)nc4)nc12)CCN3 &field=viability, T/C returns 59.7

GET /value?item= CCCS(=O)(=O)Nc1ccc(F)c(C(=O)c2c[nH]c3ncc(-c4ccc(Cl)cc4)cc23)c1F + CC(Nc1ccc2c(c1)OCCn1cc(N3C(=O)OCC3C(F)F)nc1-2)C(N)=O &field=viability, T/C returns 112

GET /value?item= CC(=O)c1c(C)c2cnc(Nc3ccc(N4CCNCC4)cn3)nc2n(C2CCCC2)c1=O + CC(Nc1ncnc2nc[nH]c12)c1cc2cccc(Cl)c2c(=O)n1-c1ccccc1 &field=viability, T/C returns 109

GET /value?item= Cn1ncc(Cl)c1-c1cc(C(=O)NC(CN)Cc2cccc(F)c2)sc1Cl (stereo unspecified) + CC(Nc1ncnc2nc[nH]c12)c1cc2cccc(Cl)c2c(=O)n1-c1ccccc1 &field=viability, T/C returns 82.5

* * *

Recorded viability, T/C values for a group of compounds are listed next.
Test system: 186277-243-T-J2-PDC multi-cell spheroid viability
METHOD SUMMARY: Anticancer human tumor 186277-243-T-J2-PDC cell line growth inhibition [PI3K];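 further: spheroids exposed to compounds for seven days before viability reading; 100% = DMSO vehicle control viability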
MEASUREMENT CONTEXT: second compound 0.0316 µM; first compound 0.01 µM; active compounds read low
# number only, unit % dropped from output

{"COMPOUND": "CC(C)n1nc(-c2ccc3oc(N)nc3c2)c2c(N)ncnc21 + COc1c(OCCCN2CCOCC2)ccc2c3n(c(=NC(=O)c4cnc(N)nc4)nc12)CCN3", "viability, T/C [%]": 39}
{"COMPOUND": "CC(=O)c1c(C)c2cnc(Nc3ccc(N4CCNCC4)cn3)nc2n(C2CCCC2)c1=O + Cc1nc(NC(=O)N2CCCC2C(N)=O)sc1-c1ccnc(C(C)(C)C(F)(F)F)c1", "viability, T/C [%]": 114}
{"COMPOUND": "CC(C)n1nc(-c2ccc3oc(N)nc3c2)c2c(N)ncnc21 + CC(Nc1ncnc2nc[nH]c12)c1cc2cccc(Cl)c2c(=O)n1-c1ccccc1", "viability, T/C [%]": 90.2}
{"COMPOUND": "Cn1ncnc1[C@H]1c2n[nH]c(=O)c3cc(F)cc(c23)N[C@@H]1c1ccc(F)cc1 + CC(Nc1ncnc2nc[nH]c12)c1cc2cccc(Cl)c2c(=O)n1-c1ccccc1", "viability, T/C [%]": 100}
{"COMPOUND": "CCN1CCN(Cc2ccc(Nc3ncc(F)c(-c4cc(F)c5nc(C)n(C(C)C)c5c4)n3)nc2)CC1 + CC(Nc1ncnc2nc[nH]c12)c1cc2cccc(Cl)c2c(=O)n1-c1ccccc1", "viability, T/C [%]": 85.9}
{"COMPOUND": "CC(=O)c1c(C)c2cnc(Nc3ccc(N4CCNCC4)cn3)nc2n(C2CCCC2)c1=O + CC(Nc1ccc2c(c1)OCCn1cc(N3C(=O)OCC3C(F)F)nc1-2)C(N)=O", "viability, T/C [%]": 96.3}

With those in mind, consider the next compound.
GET /value?item= Cn1ncnc1[C@H]1c2n[nH]c(=O)c3cc(F)cc(c23)N[C@@H]1c1ccc(F)cc1 + COc1c(OCCCN2CCOCC2)ccc2c3n(c(=NC(=O)c4cnc(N)nc4)nc12)CCN3 &field=viability, T/C returns 54.6
